Cited source for all entries: patent US20220024882A1

Exercise: state measured PC-3 PIP Tumor for each of the compounds provided.
test system: PC-3 PIP/flu tumor-bearing mice; assay: Biodistribution study in PC-3 PIP/flu tumor-bearing mice; assay type: in vivo, athymic nude Balb/c mice; details: 4 h p.i., PSMA-positive tumor xenograft, mice
Express it in % IA/g; write the number only.

## Task Retrieve PC-3 PIP Tumor measured for CC(C)Cc1ccc(C(C)C(=O)NC(CC(N)=O)C(=O)NCCCCC(NC(=O)CN2CCN(CC(=O)O)CCN(CC(=O)O)CCN(CC(=O)O)CC2)C(=O)NCC2CCC(C(=O)NC(Cc3ccc4ccccc4c3)C(=O)NCCCCC(NC(=O)NC(CCC(=O)O)C(=O)O)C(=O)O)CC2)cc1 (stereo not drawn) [^177Lu-Ibu-N-PSMA, metal not drawn] and print it.
## Result 65.4

## Task Read off the recorded PC-3 PIP Tumor for CC(C)Cc1ccc(C(C)C(=O)NCCCCC(NC(=O)CN2CCN(CC(=O)O)CCN(CC(=O)O)CCN(CC(=O)O)CC2)C(=O)NCC2CCC(C(=O)NC(Cc3ccc4ccccc4c3)C(=O)NCCCCC(NC(=O)NC(CCC(=O)O)C(=O)O)C(=O)O)CC2)cc1 (stereo not drawn) [^177Lu-Ibu-PSMA, metal not drawn]
## Result 81.3

## Task Consider the compound CC(C)Cc1ccc(C(C)C(=O)NC(CC(=O)O)C(=O)NCCCCC(NC(=O)CN2CCN(CC(=O)O)CCN(CC(=O)O)CCN(CC(=O)O)CC2)C(=O)NCC2CCC(C(=O)NC(Cc3ccc4ccccc4c3)C(=O)NCCCCC(NC(=O)NC(CCC(=O)O)C(=O)O)C(=O)O)CC2)cc1 (stereo not drawn) [^177Lu-Ibu-Dα-PSMA, metal not drawn] . State its measured PC-3 PIP Tumor.
## Result 49.4

## Task Supply measured PC-3 PIP Tumor of CC(C)Cc1ccc(C(C)C(=O)NC(CC(=O)NCCCCC(NC(=O)CN2CCN(CC(=O)O)CCN(CC(=O)O)CCN(CC(=O)O)CC2)C(=O)NCC2CCC(C(=O)NC(Cc3ccc4ccccc4c3)C(=O)NCCCCC(NC(=O)NC(CCC(=O)O)C(=O)O)C(=O)O)CC2)C(=O)O)cc1 (stereo not drawn) [^177Lu-Ibu-Dβ-PSMA, metal not drawn] in your reply.
## Result 65.7

## Task Supply reported PC-3 PIP Tumor belonging to this compound: CC(C)Cc1ccc(C(C)C(=O)NC(CCN)C(=O)NCCCCC(NC(=O)CN2CCN(CC(=O)O)CCN(CC(=O)O)CCN(CC(=O)O)CC2)C(=O)NCC2CCC(C(=O)NC(Cc3ccc4ccccc4c3)C(=O)NCCCCC(NC(=O)NC(CCC(=O)O)C(=O)O)C(=O)O)CC2)cc1 (stereo not drawn) [^177Lu-Ibu-DAB-PSMA, metal not drawn]
## Result 66.2

## Task Identify measured PC-3 PIP Tumor corresponding to CC(C)Cc1ccc(C(C)C(=O)NCC[C@H](NC(=O)CN2CCN(CC(=O)O)CCN(CC(=O)O)CCN(CC(=O)O)CC2)C(=O)NCC2CCC(C(=O)N[C@@H](Cc3ccc4ccccc4c3)C(=O)NCCCC[C@H](NC(=O)N[C@@H](CCC(=O)O)C(=O)O)C(=O)O)CC2)cc1 (stereo partly drawn) [^177Lu-Ibu-sPSMA, metal not drawn]
## Result 99
